The following compounds are shown together with reported Change in amplitude response values.
- System name: Substance-P receptor (Rattus norvegicus) (UniProt P14600)
- Sequence (P14600 whole entry, looked up): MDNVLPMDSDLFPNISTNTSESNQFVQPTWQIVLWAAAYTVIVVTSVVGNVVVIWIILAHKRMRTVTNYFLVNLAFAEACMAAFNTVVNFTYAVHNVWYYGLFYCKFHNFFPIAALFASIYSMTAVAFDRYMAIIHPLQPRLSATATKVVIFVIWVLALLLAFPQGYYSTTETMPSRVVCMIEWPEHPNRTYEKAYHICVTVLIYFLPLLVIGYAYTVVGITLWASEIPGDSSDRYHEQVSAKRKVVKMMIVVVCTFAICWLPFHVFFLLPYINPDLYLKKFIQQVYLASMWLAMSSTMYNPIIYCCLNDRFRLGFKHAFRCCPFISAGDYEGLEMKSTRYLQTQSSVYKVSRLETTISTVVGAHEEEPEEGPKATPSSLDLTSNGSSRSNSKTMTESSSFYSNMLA
- Assay explanation: Antagonistic activity against Substance P receptor in rat spinal cord at concentration of 5 uM.
Could you give me the number in %? Just the number is fine.

Example compounds with recorded Change in amplitude response:
1) COC(=O)[C@@H](CCSC)NC(=O)[C@H](CC(C)C)NC(=O)[C@@H](Cc1c[nH]c2ccccc12)NC(=O)[C@H](Cc1c[nH]c2ccccc12)NC(=O)[C@@H](Cc1c[nH]c2ccccc12)NC(=O)[C@H](CCC(N)=O)NC(=O)[C@H](CCC(N)=O)NC(=O)[C@@H]1CCCN1C(=O)[C@H](CCCCN)NC(=O)[C@@H]1CCCN1C(=O)[C@@H](N)CCCN=C(N)N :: 32
2) COC(=O)[C@H](CCSC)NC(=O)[C@@H]1CCCN1C(=O)[C@H]1CCCN1C(=O)[C@H](Cc1ccccc1)NC(=O)[C@H](Cc1ccccc1)NC(=O)[C@H](CCC(N)=O)NC(=O)[C@H](CCC(N)=O)NC(=O)[C@@H]1CCCN1C(=O)[C@H](CCCCNC(=O)OCc1ccccc1)NC(=O)[C@@H]1CCCN1C(=O)[C@H](CCCN=C(N)N)NC(=O)OCc1ccccc1 :: 12

## Input Which measured Change in amplitude response value corresponds to CSCC[C@@H](NC(=O)[C@H](CC(C)C)NC(=O)[C@@H](Cc1c[nH]c2ccccc12)NC(=O)C(Cc1ccccc1)NC(=O)[C@@H](Cc1c[nH]c2ccccc12)NC(=O)[C@H](CCC(N)=O)NC(=O)[C@H](CCC(N)=O)NC(=O)C1CCCN1C(=O)[C@H](CCCCN)NC(=O)C1CCCN1C(=O)[C@@H](N)CCCN=C(N)N)C(=O)O (stereo in doubt) ?
## Output 21

## Input Quick one: Change in amplitude response of COC(=O)[C@@H](CCSC)NC(=O)[C@H](CC(C)C)NC(=O)[C@@H](Cc1c[nH]c2ccccc12)NC(=O)[C@H](Cc1c[nH]c2ccccc12)NC(=O)[C@@H](Cc1c[nH]c2ccccc12)NC(=O)[C@H](CCC(N)=O)NC(=O)[C@H](CCC(N)=O)NC(=O)[C@@H]1CCCN1C(=O)[C@H](CCCCNC(=O)OCc1ccccc1)NC(=O)[C@@H]1CCCN1C(=O)[C@@H](N)CCCN=C(N)N ?
## Output 11

----------
- System name: Substance-P receptor (Cavia porcellus) (UniProt P30547)
- Sequence (P30547 whole entry): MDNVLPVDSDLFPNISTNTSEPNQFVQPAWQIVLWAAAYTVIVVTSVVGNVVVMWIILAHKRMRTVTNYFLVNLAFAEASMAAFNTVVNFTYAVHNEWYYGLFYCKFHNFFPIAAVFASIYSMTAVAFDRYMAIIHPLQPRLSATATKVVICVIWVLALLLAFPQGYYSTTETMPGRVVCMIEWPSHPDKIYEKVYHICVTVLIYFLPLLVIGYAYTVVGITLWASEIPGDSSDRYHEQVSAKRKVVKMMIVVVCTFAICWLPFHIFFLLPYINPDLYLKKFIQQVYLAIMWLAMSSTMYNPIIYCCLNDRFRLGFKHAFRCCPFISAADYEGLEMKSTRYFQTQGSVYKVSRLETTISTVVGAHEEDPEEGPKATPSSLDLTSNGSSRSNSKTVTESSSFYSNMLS
- Assay explanation: Evaluated in vitro for percent agonist activity in guinea pig ileum (substance P receptor)
- Assay type: functional, tissue-based
Where a SMILES comes first, the peptide text is derived from it. [ ]: non-standard residue; d: D form. The star is where a group is joined. Cbz = O=C(OCc1ccccc1)*
Property measured: SP (%)
# value in %; strip the unit string

1) COC(=O)[C@H](CCSC)NC(=O)[C@H](CC(C)C)NC(=O)CNC(=O)[C@H](Cc1ccccc1)NC(=O)[C@H](Cc1ccccc1)NC(=O)[C@H](CCC(N)=O)NC(=O)[C@H](CCC(N)=O)NC(=O)C1CCCN1C(=O)[C@H](CCCCNC(=O)OCc1ccccc1)NC(=O)C1CCCN1C(=O)[C@H](CCCN=C(N)N)NC(=O)OCc1ccccc1 (stereo in doubt) :: 7
2) COC(=O)[C@@H](CCSC)NC(=O)[C@H](CC(C)C)NC(=O)CNC(=O)[C@@H](Cc1c[nH]c2ccccc12)NC(=O)[C@@H](Cc1c[nH]c2ccccc12)NC(=O)[C@H](CCC(N)=O)NC(=O)[C@H](CCC(N)=O)NC(=O)[C@@H]1CCCN1C(=O)[C@H](CCCCNC(=O)OCc1ccccc1)NC(=O)[C@@H]1CCCN1C(=O)[C@H](CCCN=C(N)N)NC(=O)OCc1ccccc1 (Cbz-RPK(Cbz)PQQ[dW][dW]GL[dM]-OMe) :: 0
3) COC(=O)[C@@H](CCSC)NC(=O)[C@H](CC(C)C)NC(=O)CNC(=O)[C@H](Cc1ccccc1)NC(=O)[C@H](Cc1ccccc1)NC(=O)[C@@H]1CCCN1C(=O)[C@H]1CCCN1C(=O)[C@@H]1CCCN1C(=O)[C@H](CCCCN)NC(=O)[C@@H]1CCCN1C(=O)[C@@H](N)CCCN=C(N)N :: 0.066
4) CSCC[C@H](NC(=O)[C@H](CC(C)C)NC(=O)CNC(=O)[C@H](Cc1ccccc1)NC(=O)[C@H](Cc1ccccc1)NC(=O)[C@H](CCC(N)=O)NC(=O)[C@H](CCC(N)=O)NC(=O)C1CCCN1C(=O)[C@H](CCCCNC(=O)OCc1ccccc1)NC(=O)C1CCCN1C(=O)[C@H](CCCN=C(N)N)NC(=O)OCc1ccccc1)C(=O)O (stereo in doubt) :: 63

// moving on: another record for SP
## Input Could you share which SP value was measured for COC(=O)[C@H](CCSC)NC(=O)[C@@H](NC(=O)[C@H](NC(=O)[C@H](Cc1ccccc1)NC(=O)[C@H](Cc1ccccc1)NC(=O)[C@H](CCC(N)=O)NC(=O)[C@H](CCC(N)=O)NC(=O)[C@@H]1CCCN1C(=O)[C@H](CCCCNC(=O)OCc1ccccc1)NC(=O)[C@@H]1CCCN1C(=O)[C@H](CCCN=C(N)N)NC(=O)OCc1ccccc1)C(C)C)C(C)C ?
## Output 0

----------
Known Activity of a selection of molecules
- System name: Substance-P receptor (Cavia porcellus) (UniProt P30547)
- Assay explanation: Antagonistic activity against Substance P(6-11) receptor in guinea pig ileum at concentration of 5 uM.
- Assay type: functional, tissue-based
Value expressed in dose ratio; do not type the unit.

1. COC(=O)[C@@H](CCSC)NC(=O)[C@H](CC(C)C)NC(=O)[C@@H](Cc1c[nH]c2ccccc12)NC(=O)[C@H](Cc1c[nH]c2ccccc12)NC(=O)[C@@H](Cc1c[nH]c2ccccc12)NC(=O)[C@H](CCC(N)=O)NC(=O)[C@H](CCC(N)=O)NC(=O)[C@@H]1CCCN1C(=O)[C@H](CCCCN)NC(=O)[C@@H]1CCCN1C(=O)[C@@H](N)CCCN=C(N)N :: 8.1

## Input For the molecule shown here, CSCC[C@@H](NC(=O)[C@H](CC(C)C)NC(=O)[C@@H](Cc1c[nH]c2ccccc12)NC(=O)C(Cc1ccccc1)NC(=O)[C@@H](Cc1c[nH]c2ccccc12)NC(=O)[C@H](CCC(N)=O)NC(=O)[C@H](CCC(N)=O)NC(=O)C1CCCN1C(=O)[C@H](CCCCN)NC(=O)C1CCCN1C(=O)[C@@H](N)CCCN=C(N)N)C(=O)O (stereo in doubt) , give the reported Activity.
## Output 3.4

----------
- System name: UniProt P30547
- Assay explanation: Evaluated in vitro for percent agonist activity in guinea pig ileum (substance P receptor)
- Assay type: functional, tissue-based
Property measured: SP (%)
# unit: % | format: bare number

## Input Returns the measured SP for the input molecule. Input: COC(=O)[C@H](CCSC)NC(=O)[C@H](Cc1c[nH]c2ccccc12)NC(=O)[C@@H](Cc1c[nH]c2ccccc12)NC(=O)[C@H](Cc1ccccc1)NC(=O)[C@H](Cc1ccccc1)NC(=O)[C@H](CCC(N)=O)NC(=O)[C@H](CCC(N)=O)NC(=O)[C@@H]1CCCN1C(=O)[C@H](CCCCNC(=O)OCc1ccccc1)NC(=O)[C@@H]1CCCN1C(=O)[C@H](CCCN=C(N)N)NC(=O)OCc1ccccc1
## Output 0

----------
- System name: UniProtKB P14600
- Assay explanation: Antagonistic activity against Substance P(6-11) receptor in rat spinal cord at concentration of 5 uM.
The threshold is -50%. Values of Change in amplitude response beneath it are tagged criterion met; values meeting or exceeding it are tagged criterion not met.

Some solved cases for reference:
1. COC(=O)[C@H](CCSC)NC(=O)[C@@H]1CCCN1C(=O)[C@H]1CCCN1C(=O)[C@H](Cc1ccccc1)NC(=O)[C@H](Cc1ccccc1)NC(=O)[C@H](CCC(N)=O)NC(=O)[C@H](CCC(N)=O)NC(=O)[C@@H]1CCCN1C(=O)[C@@H](CCCCNC(=O)OCc1ccccc1)NC(=O)[C@H]1CCCN1C(=O)[C@@H](CCCN=C(N)N)NC(=O)OCc1ccccc1 :: criterion met
2. COC(=O)[C@H](CCSC)NC(=O)[C@@H]1CCCN1C(=O)[C@H]1CCCN1C(=O)[C@H](Cc1ccccc1)NC(=O)[C@H](Cc1ccccc1)NC(=O)[C@H](CCC(N)=O)NC(=O)[C@H](CCC(N)=O)NC(=O)[C@@H]1CCCN1C(=O)[C@H](CCCCNC(=O)OCc1ccccc1)NC(=O)[C@@H]1CCCN1C(=O)[C@H](CCCN=C(N)N)NC(=O)OCc1ccccc1 :: criterion not met
3. CSCC[C@@H](NC(=O)[C@H](CC(C)C)NC(=O)[C@@H](Cc1c[nH]c2ccccc12)NC(=O)C(Cc1ccccc1)NC(=O)[C@@H](Cc1c[nH]c2ccccc12)NC(=O)[C@H](CCC(N)=O)NC(=O)[C@H](CCC(N)=O)NC(=O)C1CCCN1C(=O)[C@H](CCCCN)NC(=O)C1CCCN1C(=O)[C@@H](N)CCCN=C(N)N)C(=O)O (stereo in doubt) :: criterion met
4. COC(=O)[C@@H](CCSC)NC(=O)[C@H](CC(C)C)NC(=O)[C@@H](Cc1c[nH]c2ccccc12)NC(=O)[C@H](Cc1c[nH]c2ccccc12)NC(=O)[C@@H](Cc1c[nH]c2ccccc12)NC(=O)[C@H](CCC(N)=O)NC(=O)[C@H](CCC(N)=O)NC(=O)[C@@H]1CCCN1C(=O)[C@H](CCCCN)NC(=O)[C@@H]1CCCN1C(=O)[C@@H](N)CCCN=C(N)N :: criterion not met

Now look at this entry.
## Input Record COC(=O)[C@@H](CCSC)NC(=O)[C@H](CC(C)C)NC(=O)[C@@H](Cc1c[nH]c2ccccc12)NC(=O)[C@H](Cc1c[nH]c2ccccc12)NC(=O)[C@@H](Cc1c[nH]c2ccccc12)NC(=O)[C@H](CCC(N)=O)NC(=O)[C@H](CCC(N)=O)NC(=O)[C@@H]1CCCN1C(=O)[C@H](CCCCNC(=O)OCc1ccccc1)NC(=O)[C@@H]1CCCN1C(=O)[C@@H](N)CCCN=C(N)N : is its Change in amplitude response strictly below -50%?
## Output criterion not met
